Quick list: TGI per entry.
test system: XF 498 CNS; experiment: NCI tumour cell line growth inhibition, 48 h

>  <compound>
CNC(=O)NCCCCC(NC(C)=O)C(=O)NCc1ccccc1 (stereo not drawn)

>  <assay_system>
XF 498 CNS

>  <TGI>
> 100 µM

$$$$
>  <compound>
NCCCNCCSP(=O)(O)O

>  <assay_system>
XF 498 CNS

>  <TGI>
> 422 µM

$$$$
>  <compound>
COc1ccccc1/C=C(\NC(=O)c1ccccc1)c1nc2ccccc2[nH]1

>  <assay_system>
XF 498 CNS

>  <TGI>
> 100 µM

$$$$

###

Quick list: TGI per entry.
tested on: U251 CNS; assay: NCI tumour cell line growth inhibition, 48 h
Where a SMILES comes first, the peptide text is derived from it. Bridges are numbered along the chain shown (N, C = ends).

>  <compound>
CC(=O)c1nc(-c2ccc(C[C@@H](CNC(=O)CN(C)C)NC(=O)c3ccc(OC(C)C)c(Cl)c3)cc2)cn1C

>  <TGI>
16.7 µM

$$$$
>  <compound>
CC(C)(C1=NC(C(C)(C)C)CO1)C1=N[C@@H](C(C)(C)C)CO1 (stereo not given in full)

>  <TGI>
> 100 µM

$$$$
>  <compound>
Fc1ccc(-c2ncn(C3CCNCC3)c2-c2ccnc(Oc3ccc(Cl)cc3)n2)cc1

>  <TGI>
7.24 µM

$$$$
>  <compound>
CC(C)(C)OC(=O)NCC(c1c[nH]c2ccccc12)c1c[nH]c2ccccc12

>  <TGI>
29.8 µM

$$$$
>  <compound>
COc1c(OC2OC(C)C(O)C(O)C2O)c(OC)c2oc(-c3ccc(O)cc3)cc(=O)c2c1O (stereo not given)

>  <TGI>
> 100 µM

$$$$
>  <compound>
O=Cn1c2ccccc2c2ccccc21

>  <TGI>
> 100 µM

$$$$
>  <compound>
CCCCS(=O)(=O)c1cc(Nc2ccc(O)c3c2C(=O)c2ccccc2C3=O)ccc1C

>  <TGI>
> 100 µM

$$$$
>  <compound>
O=S1(=O)N=C(SCc2c[nH]c3ccccc23)N(c2ccccc2)c2ccncc21

>  <TGI>
> 100 µM

$$$$
>  <compound>
Cc1nc(Nc2ccc(Cl)cc2)sc1C(=O)Nc1cccc2c(=O)[nH][nH]c(=O)c12

>  <TGI>
> 100 µM

$$$$
>  <compound>
C[C@@H]1C[C@@H]2OC(=O)[C@]3(C)[C@H]2[C@@H](OC3(C)O)[C@]2(C)C(=O)C=C[C@@H]12 (stereo not given in full)

>  <TGI>
> 100 µM

$$$$
>  <compound>
CCOc1ccc2cc(-c3nn(CC4CCN(C)CC4)c4ncnc(N)c34)ccc2c1

>  <TGI>
27.5 µM

$$$$
>  <compound>
COC(=O)[C@@H]1C=CCN1S(=O)(=O)c1ccc(C)cc1

>  <TGI>
> 100 µM

$$$$
>  <compound>
Oc1ccc(Nc2nc(Cl)c3[nH]cnc3n2)cc1

>  <TGI>
> 100 µM

$$$$
>  <compound>
COC(=O)C1CCC(=O)NCCCCC(NC(=O)C(N)CC(=O)O)C(=O)N1 (stereo not drawn) (H-Asp-Lys-Glu-OMe; lactam 2-3; configuration not given here)

>  <TGI>
> 100 µM

$$$$
>  <compound>
CCOC(=N)CC(=O)Nc1ccccc1CC

>  <TGI>
> 100 µM

$$$$
>  <compound>
C=C1c2nc3ccccc3n2C=C(c2ccccc2)N1c1ccc(C)cc1

>  <TGI>
> 100 µM

$$$$
>  <compound>
BrCc1ccc2ccc3ccc(CBr)nc3c2n1

>  <TGI>
19 µM

$$$$
>  <compound>
CCOC(=O)/C=C(/C(=O)OCC)n1cc(C)c(=O)n(Cc2cn(CCCCOC(C)=O)nn2)c1=O

>  <TGI>
45.3 µM

$$$$
>  <compound>
N.N.N.N.O=S([O-])[O-].[Co+3].[N-]=[N+]=[N-]

>  <TGI>
> 100 µM

$$$$
>  <compound>
N#C/C(=C/C=C/c1cccc(Cl)c1)S(=O)c1ccccc1 (stereo not given)

>  <TGI>
1.31 µM

$$$$

###

Quick list: TGI per entry.
test system: PC-3 prostate; test: NCI tumour cell line growth inhibition, 48 h

>  <molecule>
C=C1c2nc3ccccc3n2C=C(c2ccccc2)N1c1ccc(C)cc1

>  <operator_symbol>
>

>  <TGI (µM)>
100

$$$$
>  <molecule>
C[C@H](CCc1nc(C#N)c(N)o1)[C@H]1CC[C@H]2[C@@H]3CCC4C[C@@H](O)CC[C@]4(C)[C@H]3C[C@@H](O)[C@]12C (stereo not given in full)

>  <operator_symbol>
=

>  <TGI (µM)>
16.3

$$$$
>  <molecule>
COc1ccc(-c2nc(-c3cnccn3)n(C/C=C/c3ccccc3)n2)cc1

>  <operator_symbol>
>

>  <TGI (µM)>
100

$$$$
>  <molecule>
C[C@]12CC[C@H]3[C@@H](CC=C4C[C@@H](O)CC[C@@]43C)[C@@H]1C/C(=C\c1ccc([N+](=O)[O-])cc1)[C@@H]2O

>  <operator_symbol>
=

>  <TGI (µM)>
33.5

$$$$
>  <molecule>
CN1C2C=CC(=O)C1C(C#N)C2 (stereo not given)

>  <operator_symbol>
>

>  <TGI (µM)>
100

$$$$

###

system: SF-539 CNS; assay: NCI tumour cell line growth inhibition, 48 h; in the data active = GI50 below about 0.43 µM; inactive = the rest
Outcomes: t (active), f (inactive)

>  <compound>
COc1ccc(/C=C(\C#N)c2cc(OC)c(OC)c(OC)c2)cc1

>  <assigned_label>
t

$$$$
>  <compound>
CC(C)=CC(=O)OC1C2C(C)=CC(=O)C(O)C2(C)C2C3(O)OCC24C(CC(=O)OC14)C(C)C3O (configuration not stated)

>  <assigned_label>
t

$$$$
>  <compound>
CCN(CC)CC[n+]1ccc2c(C)c3[nH]c4ccccc4c3c(C)c2c1

>  <assigned_label>
f

$$$$
>  <compound>
CCOC(=O)c1sc(NC(=O)COc2ccc(/C=C3\CCc4cc(OC)ccc4C3=O)cc2)nc1C

>  <assigned_label>
f

$$$$
>  <compound>
CCCCS(=O)(=O)c1cc(Nc2ccc(O)c3c2C(=O)c2ccccc2C3=O)ccc1C

>  <assigned_label>
f

$$$$
>  <compound>
COc1ccc(-c2cn3ccnc3c(-c3ccc(Cl)cc3)n2)cc1

>  <assigned_label>
f

$$$$
>  <compound>
CC(C)(C)OC(=O)NCCCCCCCCCCCCn1c2c(c3ccccc3c1=O)C(=O)c1ccccc1-2

>  <assigned_label>
f

$$$$

###

tested on: CCRF-CEM leukemia; experiment: NCI tumour cell line growth inhibition, 48 h
assay_endpoint: GI50

>  <molecule_smiles>
CCN(CC)c1ccc(/C=N/N=C(N)N)cc1

>  <measured_value>
3.5 µM

$$$$
>  <molecule_smiles>
S=C(Nc1ccc(-c2nc3ccccc3s2)cc1)Nc1ccc(-c2nc3ccccc3s2)cc1

>  <measured_value>
18.4 µM

$$$$
>  <molecule_smiles>
CC(C)(O)c1cc(Nc2cc(Oc3cn(C4CC4)nc3C3CCOCC3)ccn2)ccn1

>  <measured_value>
> 100 µM

$$$$

###

Quick list: TGI per entry.
system: SK-MEL-5 melanoma; assay: NCI tumour cell line growth inhibition, 48 h

>  <compound>
Cc1nc(C(=O)OCc2ccccc2)cc(OCc2ccccc2)c1C

>  <TGI>
26 µM

$$$$
>  <compound>
CCOC(=O)C1=C(N2CCCC2)C(=O)C(C(=O)OCC)C1 (stereo unspecified)

>  <TGI>
> 100 µM

$$$$
>  <compound>
Nc1ccnc2c1ncn2[C@H]1C[C@H](O)[C@@H](CO)O1

>  <TGI>
> 100 µM

$$$$
>  <compound>
CCCCC[C@H]1C/C=C2/C(=O)C=C[C@@H]2C/C=C\CCCC(=O)O1

>  <TGI>
0.168 µM

$$$$
>  <compound>
C[C@@H]1C[C@@H]2OC(=O)[C@]3(C)[C@H]2[C@@H](OC3(C)O)[C@]2(C)C(=O)C=C[C@@H]12 (stereo partly specified)

>  <TGI>
51.2 µM

$$$$
>  <compound>
COc1ccc(C(=O)c2ccccc2)c(O)c1

>  <TGI>
> 100 µM

$$$$
>  <compound>
C[C@@H]1CC2(C[C@@H](C)C3[C@@H](CC4(C)CCCC5C6=CC(O)(CC[C@]34C)OC6=CC(=O)OC5(C)C)O2)OC1=O (stereo partly specified)

>  <TGI>
> 100 µM

$$$$
>  <compound>
CCOC(=N)CC(=O)Nc1ccccc1CC

>  <TGI>
> 100 µM

$$$$
>  <compound>
CCOC(=O)c1cnc2n(c1=O)[C@H]1CCCC[C@@H]1N2

>  <TGI>
> 100 µM

$$$$
>  <compound>
CC(C)=CCNc1ncnc2c1ncn2CCC(=O)O

>  <TGI>
> 100 µM

$$$$
>  <compound>
CC(=O)c1c(-c2ccco2)c(C#N)c(=S)n(C2OC(CO)C(O)C(O)C2O)c1C (stereo unspecified)

>  <TGI>
> 100 µM

$$$$
